These entries and their values trace back to patent US8722674B2.

Catalogue of melting point values

compound_string: CN(C)c1nc(N)nc(Nc2ccc(-c3ccccc3)cc2)n1
melting point: 190 to 201 °C
--
compound_string: CN(C)c1nc(N)nc(NC2CCCCC2)n1
melting point: 119 to 120 °C

Reported melting point for Nc1nc(N)nc(NCc2ccc3c(c2)OCO3)n1 was 140.8 to 142.9 °C

Reported melting point for CCCCCCNc1nc(N)nc(N(C)C)n1 was 142 to 149 °C

Reported melting point for CN(C)c1nc(N)nc(Nc2ccc(Cl)cc2)n1 was 164 to 167 °C

Reported melting point for CN(C)c1nc(N)nc(Nc2cc(Cl)cc(Cl)c2)n1 was 240 to 264 °C

Reported melting point for CN(C)c1nc(N)nc(Nc2ccccc2O)n1 was 307 to 312 °C

Reported melting point for CCCc1ccc(Nc2nc(N)nc(N(C)C)n2)cc1 was 155 to 165 °C

Reported melting point for CN(C)c1nc(N)nc(Nc2ccc3c(c2)-c2ccccc2C3)n1 was 282 to 290 °C

Reported melting point for CN(C)c1nc(N)nc(NCc2ccco2)n1 was 151.6 to 152 °C

Reported melting point for CN(C)c1nc(N)nc(N(C)C)n1 was 227 to 228 °C

====

readout: melting point

Reported melting point for CN(C)c1nc(N)nc(N2CCN(c3ccc([N+](=O)[O-])cc3)CC2)n1 [Example 40] was 173 to 182 °C

Reported melting point for COc1cc(Nc2nc(N)nc(N(C)C)n2)cc(OC)c1 [Example 16] was 148 to 150 °C

Reported melting point for COc1ccc(CNc2nc(N)nc(N(C)C)n2)cc1O [Example 8] was 141.4 to 142 °C

Reported melting point for CN(C)c1nc(N)nc(Nc2ccccc2-c2ccccc2)n1 [Example 38] was 196 to 216 °C

Reported melting point for CN(C)c1nc(N)nc(NCCN2CCCCC2)n1 [Example 7] was 116.6 to 117.2 °C

Reported melting point for CN(C)c1nc(N)nc(Nc2ccc(Br)cc2)n1 [Example 18] was 105 to 108 °C

====

tested on: C2C12 cells; test: Measurement of glucose absorption (3H-deoxy-glucose); format: cell-based; details: Mus musculus; 200 uM, differentiated C2C12 muscle cells, with 1 μM insulin 24 h; higher is better; read-out: glucose absorption, % control
readout: activity at 200 µM (%)
Return type: number; implicit unit %.

Sample records with activity at 200 µM:
compound_string: CN(C)c1nc(N)nc(NCc2ccoc2)n1
unit_text: %
activity at 200 µM: 180
//
compound_string: CN(C)c1nc(N)nc(NCCN2CCCCC2)n1
unit_text: %
activity at 200 µM: 131

Kindly consider the entry below.
Value sought: activity at 200 µM, system C2C12 cells, item CN(C)c1nc(N)nc(N)n1 . Result: 106

====

system: HepG2 cells; experiment: Measurement of gluconeogenesis (14C-lactate); assay type: cell-based; conditions: Homo sapiens, 100 uM, 24 h treatment, lower is better, read-out: gluconeogenesis (glucose synthesis ability), % control
readout: activity at 100 µM (%)
Return type: number; implicit unit %.

molecule: CN(C)c1nc(N)nc(Nc2ccc(F)cc2)n1 [Example 31]
value: 80.7

molecule: CN(C)c1nc(N)nc(Nc2ccc(-c3ccccc3)cc2)n1 [Example 37]
value: 85.7

molecule: CN(C)c1nc(N)nc(N2CCN(c3ccccc3)CC2)n1 [Example 39]
value: 77.4

molecule: CN(C)c1nc(N)nc(Nc2ccc(Br)cc2)n1 [Example 18]
value: 67

molecule: CCCc1ccccc1Nc1nc(N)nc(N(C)C)n1 [Example 26]
value: 24.7

Reported activity at 100 µM for CN(C)c1nc(N)nc(N2CCN(c3ccc([N+](=O)[O-])cc3)CC2)n1 [Example 40] was 39.8
